# Experimental Details: mitochondrial membrane potential change in A549 cells, profiling panel, cell-based, JC-1 fluorescence, basal, 24 h, 100 nL (AID 1138);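 further: A549 lung adenocarcinoma cells under basal conditions with no added stimulus; test concentration not given here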
# Particulars: higher = more signal
Returns rule met if the recorded z-score is greater than or equal to -0.02, and rule not met otherwise.

molecule=CCc1cccc(NC(=O)O[C@H]2[C@H](OC(=O)Nc3ccccc3)[C@@H](OC(=O)Nc3ccccc3)[C@@H](OC)O[C@@H]2CO)c1 category="rule not met"

Quick check: does `CC[C@@H]1C=C(C(=O)O)[C@H](c2ccccc2)N1S(=O)(=O)c1ccc([N+](=O)[O-])cc1` have z-score greater than or equal to -0.02?
rule not met

// next record `CO[C@@H]1COC(=O)CC=C[C@H](C)COC(=O)[C@H](Cc2ccccc2)NC(=O)CC=C[C@H]1C`
rule met

Queued: `CC(C)(C)OC(=O)CC[C@]1(C(=O)N2CCCCC2)N=C(c2ccc(OCCCO)cc2)O[C@H]1c1ccccc1`
rule met

What would you report for `CCN1C(C)=C(C(=O)OC)[C@@H](c2ccccc2)N2C(=O)[C@](O)(C(=O)OC)[C@@H](c3ccccc3)C(C(=O)c3ccccc3)=C12` ?
rule met

Also check N#Cc1ccc(NN2C(C(O)CCc3ccccc3)C=CC3C(=O)N(c4ccccc4)C(=O)C32)cc1 (stereo not given)
rule not met

###

# Experimental Details: A549 lung cancer cell viability effects, profiling panel, resazurin fluorescence, 24 h, PK04 Diversity Set (AID 1171); further: test concentration not given here
# Particulars: higher = more signal, called active from +8 up or from −8 down
// reported z-score per item
Write no unit; give the number alone.

A selection of reference data follows.
compound=CN(C)CCCC[C@@H]1NC(=O)[C@@H]2C[C@H](C(=O)NCCCCCNC(=O)CS)[C@H](c3ccc(O)cc3)N2C1=O obs_value=-0.207
compound=COCCOC(=O)N1C(=O)[C@@]2(c3cc(C#CCCO)ccc31)[C@H](c1ccc(OCCO)cc1)N1[C@H](c3ccccc3)[C@H](c3ccccc3)OC(=O)[C@H]1[C@@H]2C(=O)NC[C@H](O)c1ccccc1 obs_value=0.703

I have this compound here, `CO[C@@H]1COC(=O)CC=C[C@H](C)COC(=O)[C@H](Cc2ccccc2)NC(=O)CC=C[C@H]1C` , and I need its recorded z-score.
-0.145

Can you check `O=C1O[C@@H](c2ccccc2)[C@@H](c2ccccc2)N2[C@@H](c3ccccc3OCCO)[C@]3(C(=O)Nc4ccc(C#CC5=CCCCC5)cc43)[C@@H](C(=O)O)[C@H]12` next?
0.289

What about `COc1ccc([Si](C)(C)[C@@H]2[C@@H](CCO)O[C@]3(C(=O)N(Cc4ccc(NC(=O)[C@H](C)O)cc4)c4ccccc43)[C@H]2C)cc1` ?
-2.95

What do you get for `COc1ccc([Si](C)(C)[C@H]2[C@H](CC(=O)N(CCO)Cc3ccccc3)O[C@@]3(C(=O)N(C)c4ccccc43)[C@@H]2C)cc1` ?
0.221

Record: `COC(=O)C1=C(C)N(Cc2ccccc2)c2c(C(=O)OC)c(C(=O)OC)c(C(=O)OC)c(=O)n2[C@@H]1c1ccccc1`
0.524

// same read-out, input: C[C@H]1C2[C@H](Cc3ccccc3)NC(=O)[C@]23C(=O)N[C@H](Cc2ccccc2)C(=O)N[C@@H](Cc2ccccc2)C(=O)NC/C=C\C/C=C/C3[C@@H]2O[C@]12C (some centres undefined)
0.276

Param item: `C=CCN1C(=O)[C@@]2(O[C@@H](CCn3cc([C@H](O)c4ccccc4)nn3)[C@H]([Si](C)(C)c3ccc(OC)cc3)[C@H]2C)c2cc(N3CCOC3=O)ccc21`
-1.97
